Please go through the items and note down their EC50.
# TARGET OR SYSTEM: Protein farnesyltransferase (Homo sapiens, UniProt P49354+P49356)
# EXPERIMENT: Inhibition of HDJ2 farnesylation in PSN-1 cells over 7 hr assay in the presence of 50% human serum
# Type: functional, cell-based
State just the number; it will be interpreted in nM.

Given the entry N#Cc1ccc2cc1Oc1cccc(c1)CN1CC[C@@H](NCc3cncn3C2)C1=O , report its measured EC50.
13

Given the compound N#Cc1ccc2cc1Oc1ccc3c(c1)[C@@H](CCC3)N1CC[C@@H](NCc3cncn3C2)C1=O , what is its reported EC50?
0.25

----------
# EXPERIMENT: Bioavailability in dog (dose 1 mg/kg i.v.)
# CONDITION: in vivo, iv
For each entry below, report its Vd value.
Quick reminder: number only, in L/kg, skip the unit.

Form field: reported Vd of N#Cc1ccc2cc1Oc1ccc3cccc(c3c1)N1CCC(NCCc3cncn3C2)C1=O (stereo in doubt; 66)
0.57

Name the recorded Vd for N#Cc1ccc2cc1Oc1ccc3c(c1)[C@@H](CCO3)N1CC[C@@H](NCc3cncn3C2)C1=O .
0.34
